target: T1, cSNK:BSA conjugate (bovine, head-to-tail cyclized; conjugated to BSA carrier); experiment: BLI 2:1 fit, site 2 (kon2); 25 nM row
T1 construct: also called BSA-cSNK
T1 sequence (P02769 25-607 limits assumed): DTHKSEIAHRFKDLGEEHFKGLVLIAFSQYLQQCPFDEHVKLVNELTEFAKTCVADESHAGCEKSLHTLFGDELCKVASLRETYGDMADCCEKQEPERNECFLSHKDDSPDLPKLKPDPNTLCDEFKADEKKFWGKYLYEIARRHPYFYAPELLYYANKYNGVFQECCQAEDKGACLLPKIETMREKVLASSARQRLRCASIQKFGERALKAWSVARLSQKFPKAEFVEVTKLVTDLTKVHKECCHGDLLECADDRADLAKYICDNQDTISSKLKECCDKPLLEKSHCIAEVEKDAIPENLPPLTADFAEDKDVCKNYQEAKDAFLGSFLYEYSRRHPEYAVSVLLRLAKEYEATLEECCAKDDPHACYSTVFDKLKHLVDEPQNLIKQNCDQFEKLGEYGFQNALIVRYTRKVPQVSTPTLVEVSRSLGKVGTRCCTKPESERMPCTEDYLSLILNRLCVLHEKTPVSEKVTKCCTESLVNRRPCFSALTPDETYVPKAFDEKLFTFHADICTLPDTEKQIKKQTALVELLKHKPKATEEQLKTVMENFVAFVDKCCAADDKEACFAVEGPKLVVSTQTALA

| binder | unitsLabel | kon |
| --- | --- | --- |
| hu5E3-IgG1 (antibody, V domains shown, human IgG1/kappa; also called humanized 5E3 IgG1; IHA variant) VH: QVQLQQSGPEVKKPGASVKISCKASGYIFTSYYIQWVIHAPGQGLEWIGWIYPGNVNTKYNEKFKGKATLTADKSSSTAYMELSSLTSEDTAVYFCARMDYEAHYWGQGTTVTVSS VL: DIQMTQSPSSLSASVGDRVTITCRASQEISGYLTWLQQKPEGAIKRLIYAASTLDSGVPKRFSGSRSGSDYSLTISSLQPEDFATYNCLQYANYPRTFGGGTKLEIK | M⁻¹ s⁻¹ | 6.56e+06 |
| murine monoclonal antibody 5E3 (antibody, V domains shown, mouse antibody of the 5E3 hybridoma; also called murine 5E3; m5E3) VH: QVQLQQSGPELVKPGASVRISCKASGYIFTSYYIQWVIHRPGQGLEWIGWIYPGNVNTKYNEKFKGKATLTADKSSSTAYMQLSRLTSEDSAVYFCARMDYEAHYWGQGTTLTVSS VL: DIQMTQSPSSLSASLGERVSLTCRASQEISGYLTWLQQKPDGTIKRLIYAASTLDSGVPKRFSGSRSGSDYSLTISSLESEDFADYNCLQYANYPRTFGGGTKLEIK | M⁻¹ s⁻¹ | 1.42e+07 |
| hu5E3-IgG4 (antibody, V domains shown, human IgG4/kappa; also called humanized 5E3 IgG4) VH: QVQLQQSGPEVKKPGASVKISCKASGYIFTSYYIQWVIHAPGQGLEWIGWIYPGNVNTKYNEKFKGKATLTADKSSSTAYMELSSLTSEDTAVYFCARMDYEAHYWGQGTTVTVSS VL: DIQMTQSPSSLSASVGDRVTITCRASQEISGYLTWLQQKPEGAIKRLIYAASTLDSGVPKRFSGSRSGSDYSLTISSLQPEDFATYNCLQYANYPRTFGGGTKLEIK | M⁻¹ s⁻¹ | 7.52e+06 |
| rehu5E3-IgG4 (antibody, V domains shown, human IgG4/kappa; also called IgG4 rehu version) VH: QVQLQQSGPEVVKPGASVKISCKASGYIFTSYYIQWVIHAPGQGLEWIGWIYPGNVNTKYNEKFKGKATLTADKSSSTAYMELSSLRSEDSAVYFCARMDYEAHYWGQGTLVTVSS VL: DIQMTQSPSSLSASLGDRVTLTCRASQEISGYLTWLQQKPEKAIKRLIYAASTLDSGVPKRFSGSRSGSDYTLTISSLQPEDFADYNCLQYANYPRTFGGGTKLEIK | M⁻¹ s⁻¹ | 4.44e+06 |
